Biological target: human TLR7 (Homo sapiens (Human))
Sequence (Q9NYK1 27-1049): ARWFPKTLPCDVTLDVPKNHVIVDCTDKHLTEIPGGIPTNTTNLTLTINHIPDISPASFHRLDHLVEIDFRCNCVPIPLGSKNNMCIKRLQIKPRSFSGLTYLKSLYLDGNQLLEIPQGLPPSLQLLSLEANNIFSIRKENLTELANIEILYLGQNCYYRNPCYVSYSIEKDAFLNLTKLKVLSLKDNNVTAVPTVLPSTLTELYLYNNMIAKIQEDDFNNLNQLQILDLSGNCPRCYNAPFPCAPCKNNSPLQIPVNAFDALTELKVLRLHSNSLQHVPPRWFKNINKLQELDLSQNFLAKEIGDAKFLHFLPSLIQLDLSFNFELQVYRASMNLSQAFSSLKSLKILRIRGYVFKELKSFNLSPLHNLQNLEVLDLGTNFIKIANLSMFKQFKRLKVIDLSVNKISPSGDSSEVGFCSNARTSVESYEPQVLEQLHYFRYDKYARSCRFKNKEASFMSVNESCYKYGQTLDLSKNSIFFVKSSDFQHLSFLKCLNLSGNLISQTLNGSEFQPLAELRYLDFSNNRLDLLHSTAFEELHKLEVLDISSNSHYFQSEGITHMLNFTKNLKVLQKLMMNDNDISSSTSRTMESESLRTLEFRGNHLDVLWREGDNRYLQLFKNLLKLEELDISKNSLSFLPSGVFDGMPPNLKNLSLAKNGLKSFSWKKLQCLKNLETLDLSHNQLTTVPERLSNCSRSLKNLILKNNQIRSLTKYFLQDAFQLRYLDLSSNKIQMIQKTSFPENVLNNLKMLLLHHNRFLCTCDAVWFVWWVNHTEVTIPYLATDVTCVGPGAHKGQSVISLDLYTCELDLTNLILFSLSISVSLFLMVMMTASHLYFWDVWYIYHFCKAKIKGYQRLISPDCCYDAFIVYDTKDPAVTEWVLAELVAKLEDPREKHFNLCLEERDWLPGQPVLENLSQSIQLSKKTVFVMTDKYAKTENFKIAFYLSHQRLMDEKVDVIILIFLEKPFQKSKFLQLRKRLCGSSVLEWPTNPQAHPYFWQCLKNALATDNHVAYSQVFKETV
Assay: TLR7 inhibition reporter assay (HEK-Blue, SEAP)
Assay type: cell-based
Details: HEK-Blue cells overexpressing human TLR7, gardiquimod 7.5 μM stimulation
property_measured: pIC50
// scale note: pIC50 = -log10(conc_M); give the bare number

Provide only the value of recorded pIC50 for COc1ccc(-c2[nH]c3ccc(-c4ccnc(C(=O)NC5CCC(N)CC5)c4)cc3c2C(C)C)cc1OC (stereo not shown) [Example 12]
7.16

Provide only the value of recorded pIC50 for Cc1cc(-c2[nH]c3ccc(-c4nnc(C5CCCN(CC(=O)N(C)C)C5)[nH]4)cc3c2C(C)C)ccn1 (stereo not shown) [Example 180]
7.51

Provide only the value of recorded pIC50 for COc1ccc(-c2[nH]c3ccc(-c4ccc(N5CCN(C(C)=O)CC5)nc4)cc3c2C(C)C)cc1OC [Example 390]
6.01

Provide only the value of recorded pIC50 for CCc1c(-c2ccc(OC)c(OC)c2)[nH]c2ccc(-c3cccc(CN4CCN(C)CC4)c3)cc12 [Example 368]
5.60

====

Target: UniProt Q9NR97
Assay: TLR8 inhibition reporter assay (HEK-Blue, SEAP)
Details: HEK-Blue cells overexpressing human TLR8, R848 15.9 μM stimulation
Excerpt: TLR7/8/9 Inhibition Reporter Assays HEK-Blue™-cells (Invivogen) overexpressing human TLR7, TLR8 or TLR9 receptors were used for screening inhibitors of these receptors using an inducible SEAP (secreted embryonic alkaline phosphatase) reporter gene under the control of the IFN-β minimal promoter fused to five NF-κc Band AP-1-binding sites. […]
pIC50: −log10 of the molar value.
Where pIC50 equals or exceeds 8, the correct label is satisfied; where it does not, the label is not satisfied.

Reference set (5 entries):
- Cc1cc(-c2[nH]c3ccc(-c4nc(C(=O)NCCC5CCCN5)co4)cc3c2C(C)C)cc(C)n1 (stereo not shown): not satisfied
- Cc1cc(-c2[nH]c3ccc(-c4nnc(C5CCCN(C(C)C)C5)o4)cc3c2C(C)C)ccn1 (stereo not shown) [Example 292]: satisfied
- COc1ccc(-c2[nH]c3ccc(-c4ccc(N5CCOCC5)nc4)cc3c2C(C)C)cc1OC: not satisfied
- CC(C)c1c(-c2ccnc3n[nH]cc23)[nH]c2ccc(-c3nnc(CN4CCCC4)o3)cc12: not satisfied
- CC(C)c1c(-c2ccnc3[nH]ncc23)[nH]c2ccc(-c3nnc(CN4CCOCC4)o3)cc12: not satisfied

Okay, now this molecule:
Item "CC(C)c1c(-c2ccnc3[nH]ncc23)[nH]c2ccc(-c3noc(C4CCN(C(=O)CN(C)C)CC4)n3)cc12" with pIC50 of 8 or above?
satisfied

====

Biological target: human TLR8 (Homo sapiens (Human), UniProt Q9NR97)
Sequence (Q9NR97 27-1041): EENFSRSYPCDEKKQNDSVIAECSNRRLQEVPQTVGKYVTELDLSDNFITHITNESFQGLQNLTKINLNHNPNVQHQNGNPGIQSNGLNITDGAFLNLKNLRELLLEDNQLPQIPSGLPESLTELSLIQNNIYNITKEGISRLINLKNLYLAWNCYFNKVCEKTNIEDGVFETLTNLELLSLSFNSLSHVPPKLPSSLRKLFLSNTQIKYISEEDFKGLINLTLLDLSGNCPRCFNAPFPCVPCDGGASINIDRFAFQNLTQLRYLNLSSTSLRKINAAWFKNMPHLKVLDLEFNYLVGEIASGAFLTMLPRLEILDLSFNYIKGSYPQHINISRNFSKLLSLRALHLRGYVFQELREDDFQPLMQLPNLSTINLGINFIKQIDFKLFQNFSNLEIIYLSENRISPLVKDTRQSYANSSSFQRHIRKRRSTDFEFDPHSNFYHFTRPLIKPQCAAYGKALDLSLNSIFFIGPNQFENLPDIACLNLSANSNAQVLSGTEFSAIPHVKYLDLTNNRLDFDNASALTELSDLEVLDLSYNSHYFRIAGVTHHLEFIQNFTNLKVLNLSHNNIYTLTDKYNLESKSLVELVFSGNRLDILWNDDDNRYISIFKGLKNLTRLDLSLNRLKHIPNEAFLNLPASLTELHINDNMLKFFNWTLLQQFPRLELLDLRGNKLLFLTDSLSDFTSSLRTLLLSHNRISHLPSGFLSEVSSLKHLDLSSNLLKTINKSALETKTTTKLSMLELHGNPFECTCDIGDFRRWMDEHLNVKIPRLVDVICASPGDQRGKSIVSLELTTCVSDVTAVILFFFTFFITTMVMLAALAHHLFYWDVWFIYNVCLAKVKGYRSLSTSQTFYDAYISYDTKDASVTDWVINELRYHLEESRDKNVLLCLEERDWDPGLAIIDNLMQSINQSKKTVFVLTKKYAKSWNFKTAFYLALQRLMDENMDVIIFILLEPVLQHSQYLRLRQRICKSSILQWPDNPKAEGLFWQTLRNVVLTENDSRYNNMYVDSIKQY
Experiment: TLR8 inhibition reporter assay (HEK-Blue, SEAP)
Conditions: HEK-Blue cells overexpressing human TLR8, R848 15.9 μM stimulation
IC50 under 40 nM gets Yes, anything at or over 40 nM gets No.

- Cc1cc(-c2[nH]c3ccc(-c4cn5c(n4)CNCC5)cc3c2C(C)C)cc(C)n1: Yes

hey, is IC50 for "Cc1cc(-c2[nH]c3ccc(-c4cnc(N)nc4)cc3c2C(C)C)ccn1" lower than 40 nM or not?
No

hey, is IC50 for "COc1ccc(-c2[nH]c3ccc(-c4ccc5c(c4)CCNC5)cc3c2C(C)C)cc1OC" lower than 40 nM or not?
Yes

hey, is IC50 for COc1ccc(-c2[nH]c3ccc(-c4nnc(C5CCCN(C)C5)o4)cc3c2C(C)C)cc1OC (stereo not shown) lower than 40 nM or not?
Yes

hey, is IC50 for "Cc1cc(-c2[nH]c3ccc(-c4ccnc(C5CCN(C(C)C)CC5)c4)cc3c2C(C)C)cc(C)n1" lower than 40 nM or not?
Yes

hey, is IC50 for CC(C)c1c(-c2ccnc3[nH]ncc23)[nH]c2ccc(-c3nnc(C4CCCN(C)C4)o3)cc12 (stereo not shown) [Example 168] lower than 40 nM or not?
Yes
